- System Name: T1, human interleukin 12 (p70 heterodimer of p35 and p40) (human, UniProt P29459 23-219; P29460 23-328)
- T1 construct: Recombinant human IL-12; also called hIL-12; IL-12
- T1 sequence (looked up) 1: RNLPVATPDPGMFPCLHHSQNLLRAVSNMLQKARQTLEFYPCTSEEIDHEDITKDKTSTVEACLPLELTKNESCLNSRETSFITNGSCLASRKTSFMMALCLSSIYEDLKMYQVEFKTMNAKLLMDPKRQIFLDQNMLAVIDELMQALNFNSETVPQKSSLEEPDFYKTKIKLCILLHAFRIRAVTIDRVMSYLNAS
- T1 sequence (looked up) 2: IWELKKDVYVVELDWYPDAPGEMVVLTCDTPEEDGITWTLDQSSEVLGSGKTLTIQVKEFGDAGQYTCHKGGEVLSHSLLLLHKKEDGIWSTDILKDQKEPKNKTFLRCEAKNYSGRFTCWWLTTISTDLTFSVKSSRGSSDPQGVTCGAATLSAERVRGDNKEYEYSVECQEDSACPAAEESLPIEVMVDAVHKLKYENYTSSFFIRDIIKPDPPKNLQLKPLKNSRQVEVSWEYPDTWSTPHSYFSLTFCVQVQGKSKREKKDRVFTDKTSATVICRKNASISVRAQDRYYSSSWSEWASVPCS
- Protocol Summary: SPR (BIAcore), off-rate
Property Name: koff (s⁻¹)
Reply numerically in s⁻¹, unit not repeated.

Binder	Property Name	Value Units	Test Value
SEQ ID NO: 496 (Y61, K at L32) (antibody, V domains shown) VH: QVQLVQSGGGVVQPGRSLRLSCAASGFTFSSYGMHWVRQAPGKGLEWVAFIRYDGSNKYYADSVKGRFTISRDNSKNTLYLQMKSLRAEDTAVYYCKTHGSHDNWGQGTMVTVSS VL: SYVLTQPPSVSGTPGQRVTISCSGGRSNIGSNKVKWYQQLPGTAPKLLIYGNDQRPSGVPDRFSGSKSGTSASLAITGVQAEDEADYYCQSYDRGTHPALLFGTGTKVTVLG	koff	s⁻¹	0.000318
SEQ ID NO: 478 (Y61, P at L30) (antibody, V domains shown) VH: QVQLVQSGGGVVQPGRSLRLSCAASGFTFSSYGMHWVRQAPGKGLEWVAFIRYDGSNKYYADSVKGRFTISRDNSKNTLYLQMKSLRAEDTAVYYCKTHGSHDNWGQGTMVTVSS VL: SYVLTQPPSVSGTPGQRVTISCSGGRSNIGPNTVKWYQQLPGTAPKLLIYGNDQRPSGVPDRFSGSKSGTSASLAITGVQAEDEADYYCQSYDRGTHPALLFGTGTKVTVLG	koff	s⁻¹	0.00025
SEQ ID NO: 497 (Y61, R at L32) (antibody, V domains shown) VH: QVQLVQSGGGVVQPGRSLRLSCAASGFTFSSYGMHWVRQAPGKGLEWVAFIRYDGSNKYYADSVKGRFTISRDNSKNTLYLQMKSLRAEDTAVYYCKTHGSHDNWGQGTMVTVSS VL: SYVLTQPPSVSGTPGQRVTISCSGGRSNIGSNRVKWYQQLPGTAPKLLIYGNDQRPSGVPDRFSGSKSGTSASLAITGVQAEDEADYYCQSYDRGTHPALLFGTGTKVTVLG	koff	s⁻¹	0.0069

Consider now this further binder.
Request: For the binder SEQ ID NO: 483 (Y61, H at L31) (antibody, V domains shown) VH: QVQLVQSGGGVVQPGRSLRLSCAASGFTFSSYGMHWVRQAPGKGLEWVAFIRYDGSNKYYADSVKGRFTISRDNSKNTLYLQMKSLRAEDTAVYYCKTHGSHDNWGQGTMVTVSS VL: SYVLTQPPSVSGTPGQRVTISCSGGRSNIGSHTVKWYQQLPGTAPKLLIYGNDQRPSGVPDRFSGSKSGTSASLAITGVQAEDEADYYCQSYDRGTHPALLFGTGTKVTVLG , give its reported koff.
Result: 0.000315
